Each entry below carries its reported cytotoxicity at 70.5 h.
- procedureText: Human HepG2 cell viability assay in 384 well format
- Assay type: toxicity, cell-based
- Set-up: dose 125 nL, time 70.5 hour; concentration not given beside the values
- details: HepG2 cells, read-out: Inhibition
measurementKind: cytotoxicity at 70.5 h (%)

• Cc1ccc(=O)n(Cc2csc(N(C)C3CC3)n2)n1 = -10.2
• Cc1nnc(CN2CCN(C)C3(CCNC(=O)CC3)C2)s1 (configuration not stated) = 2.04
• Cc1noc2nc(C3CCCN(Cc4ccncc4)C3)cc(C(F)F)c12 (configuration not stated) = -3.5
• O=C(Cc1cccs1)N1CCC2(CCCN(CC3CCOCC3)C2)C1 (configuration not stated) = -6.08
• Cc1ncsc1CCN(C)C(=O)CCc1nc2cccnc2n1C = -11.9
• CNC(=O)[C@@H]1C[C@@H](NC(=O)CCCc2cccs2)CN1C1CCOCC1 = -1.92
• O=C(c1ccccn1)N1CCc2ncc(Cn3cccn3)n2CC1 = -7.08
• CCN(C)c1ncc2c(c1C(=O)O)CCN(C1CCOC1)C2 (configuration not stated) = 0.989
• O=C1CCCN1CCC1CCN(C2CCCNC2)CC1 (configuration not stated) = -1.85
• Cc1csc2c(C3CCCN(C(=O)CCn4ccnc4)C3)nc(C)n12 (configuration not stated) = 17.3
• O=C(CCc1ccc2c(c1)CCO2)Nc1nnn[nH]1 = -6.65
• NCC1CCC(c2c(C(=O)NCCO)sc3ccccc23)CC1 (configuration not stated) = 16.1
• Cc1nn(C)c(C)c1S(=O)(=O)N(CC(N)=O)CC(C)C = -8.24
• Cc1nc2cc(CNC(=O)C3CC(=O)N(C4CCCC4)C3)ccc2n1C (configuration not stated) = -7.58
• Cc1ccc(C(=O)N2CCSCC2)cc1NC(=O)NCCO = -4.73
• Cc1noc(-c2ccc(-n3ncc(C(=O)O)c3C)nc2)n1 = -5.29
• CC1(C)CC(N(Cc2cccnc2)Cc2cccc(F)c2)CC(C)(C)N1 = 2.01
• Cc1nc(C)c(C(C)NCc2c(C(C)C)nn(C)c2N(C)C)s1 (configuration not stated) = -0.665
• Cc1noc(CN2CCC(Cc3ccc(F)cc3)CC2)n1 = -9.61
• CCn1nc(C)c(CCNC(=O)C2CCCN(C(N)=O)C2)c1C (configuration not stated) = 19.9
• CC(C)(O)c1cn(C2CCN(C(=O)CCc3ccncc3)CC2)nn1 = -4.73
• CN(C(=O)Nc1ccccn1)C1CCCN(c2ccccc2)C1=O (configuration not stated) = 3.77
• COc1ccc2c(c1)CCCN(C(C)C(=O)NC(N)=O)C2 (configuration not stated) = -8.05
• O=C(C[C@H]1[C@H]2CN(Cc3ccc(F)cc3)C[C@@H]12)N1CCCC1 = -3.22
• Cc1cnn(CC2CCCCN2C(=O)c2ccc3[nH]c(=O)[nH]c3c2)c1 (configuration not stated) = -0.746
• CC1CCC(NS(=O)(=O)CC(=O)Nc2ccccc2N2CCCC2)CC1 (configuration not stated) = -1.66
• O=C(c1ccc(F)c(Cl)c1)N1C[C@@H]2CC[C@H](C1)N(Cc1ccccc1)C2 = -5.41
• Cc1[nH]c2ccccc2c1CCNC(=O)N1CCC2(C1)OCCO2 = -17.8
• O=C1CO[C@@H]2CN(Cc3ccncc3)C[C@H]2N1Cc1ccncc1 = -7.94
• CCc1cc(C(=O)N2CCC3(CCCN(CCOC)C3=O)C2)cs1 (configuration not stated) = -9.21
• CCc1nc2n(n1)CCCC2NC(=O)Nc1ccc(SC)c(F)c1 (configuration not stated) = -6.66
• COCCCC1CCCCN1Cc1cn2cc(C)ccc2n1 (configuration not stated) = -25.8
• CC(C)Nc1cccc(CC2CCN(S(C)(=O)=O)CC2)n1 = 19.5
• COCC(c1ccccn1)N(C)C(=O)c1cc(-c2ccccc2O)n[nH]1 (configuration not stated) = -6.79
• Cc1cc(OCC(=O)NS(=O)(=O)c2cccnc2)ccc1Cl = -2.82
• Cc1nc(-c2nc(C(=O)NC3CC3)c3ccccn23)cn1C(C)C = -2.95
• O=S(=O)(c1c(Cl)nc2sccn12)N1CCCC2(CCNC2)C1 (configuration not stated) = -7.18
• CC(C)Cc1ncc2c(n1)CN(c1nc3ccccc3cc1CO)C2 = -14.3
• O=C1CCC2(CCNCC2)CN1Cc1nncn1CCc1ccccc1 = -8.25
• N[C@@H]1CCC[C@@H](Oc2ccc(F)cc2Oc2cccc(F)c2)[C@@H]1O = -1.82
• CC(C)COCCC(=O)NCc1cn2cc(Br)ccc2n1 = 18.2
• CCOc1nn(CC)cc1-c1nnc(SCC)n1C = -12.3
• Cc1csc2c(=O)n(CCN3CCC(c4ccccc4)CC3)cnc12 = -3.26
• Cn1cc(C2CC(=O)NC23CCN(Cc2cccc(F)c2)CC3)cn1 (configuration not stated) = -0.799
• CC(C)c1noc(CN2CCN(C(=O)c3ccc(F)cc3)CC2)n1 = -3.61
• CC(Oc1ccccc1C#N)C(=O)NC1CC1 (configuration not stated) = -8.65
• COCCN(CCOC)C(=O)c1cccc(Cn2nc(C)cc2C)c1 = 0.115

---

- procedureText: Human HepG2 cell viability assay in 384 well format
- Assay type: toxicity, cell-based
- Design: dose 125 nL, time 70.5 hour; concentration not given beside the values
- details: HepG2 cells, read-out: Inhibition
Binary call on cytotoxicity at 70.5 h with cut-off -10%: strictly below means yes (1), and equality or higher means no (0).

• COCCN1CCC2(CC1)CC1(CCN(S(C)(=O)=O)CC1)N(C)C2=O = no (0)
• COc1ccccc1N1CC(NC(=O)Cn2cc(C(C)C)nn2)CC1=O (stereo unspecified) = no (0)
• COCCn1cc(NCc2cccc3cn[nH]c23)cn1 = no (0)
• CCOc1ncccc1CNC(=O)N1CCCC1c1cccs1 (stereo unspecified) = yes (1)
• COCCC1(C(=O)NCCc2nncn2C2CC2)CCC1 = yes (1)
• Cc1cc(C(F)(F)F)nn1CC(C)C(=O)Nc1ccccn1 (stereo unspecified) = yes (1)

---

- procedureText: Human HepG2 cell viability assay in 384 well format
- Type: toxicity, cell-based
- Parameters: dose 125 nL, time 70.5 hour; concentration not given beside the values
- details: HepG2 cells, read-out: Inhibition
Each entry below carries its reported cytotoxicity at 70.5 h.
measurementKind: cytotoxicity at 70.5 h (%)

• Cc1cc(CN2CC[C@H]3C[C@@H](c4nccs4)O[C@@H]3C2)no1 = -2.76
• CC(=O)N1CCN(c2ccccc2CNc2ccc3[nH]ncc3c2)CC1 = 0.892
• CN(C)c1ncnc2c1CCN(C(=O)c1cccnc1)CC2 = -6.66
• CCn1cc(NC(=O)C2CCN(Cc3ccccc3C#N)CC2)cn1 = -1.61
• CCn1nnc2c1C(COC)CN(C(=O)COc1ccccc1)C2 (configuration not stated) = 0.105
• CCOC(=O)CN1CCC2(CCCN(CCOc3ccccc3)C2)C1 (configuration not stated) = -16
• COCc1nc(N(C)C/C=C/c2ccccc2)c2cnn(C)c2n1 = -8.43
• COCCN(Cc1ccccc1Cl)C(=O)c1c(C)cc(C)[nH]c1=O = -2.7
• CC(C)OCCS(=O)(=O)c1ccccc1C#N = 11.2
• Nc1cc2c(nn1)CCN(C(=O)c1cccc3c1OCCO3)C2 = -14.7
• CC(C)CCC(=O)NCC(=O)N1CCCCCC1c1ccco1 (configuration not stated) = -5.74
• Cc1nccn1CCC1CCCCN1Cc1cccc(CCN)c1 (configuration not stated) = -1.82
• Cc1ccc(C)c(S(=O)(=O)CCNC2CCc3ncnn3C2)c1 (configuration not stated) = -0.666
• COCc1cccc(S(=O)(=O)NCc2cnn(C)c2C)c1 = -9.83
• CC(C)SCC(=O)N1CCc2c(nc(N(C)C)nc2N(C)C)C1 = -9.5
• CN(CC(C)(CO)CO)C(=O)Nc1cc(F)cc(Cl)c1 = -6.37
• CNc1cc(C)nc(N2CCC3(CC2)[C@H](O)C[C@@H]3OCCN(C)C)n1 = -1.9
• Cc1ccc(CC(=O)Nc2ccc(CS(C)(=O)=O)c(F)c2)cc1 = -2.59
• CC(C)(C)c1cc(CN2CCOCC(O)C2)n[nH]1 (configuration not stated) = 2.49
• Cc1cccc(CN2CCc3[nH]nc(C(=O)N4CCOCC4)c3C2)n1 = 0.815
• CCN(Cc1noc(CC(C)C)n1)Cc1ccccc1C(=O)O = -6.37
• CC(CC(=O)N1CCCN(Cc2cscn2)CC1)n1cccc1 (configuration not stated) = -6.05
• CCS(=O)(=O)N1CCN(C(C)c2ccccc2OC)CC1 (configuration not stated) = -10.2
• Cn1ccc(C(=O)N2CCCC(c3cc4cccnc4c(O)n3)C2)n1 (configuration not stated) = -9.08
• Cc1noc(C)c1CC(=O)N[C@@H]1CC[C@@H](Oc2ccccc2)[C@@H]1O = -3.35
• CN1CCCc2cc(-c3cncn3CCNC3CCS(=O)(=O)C3)ccc21 (configuration not stated) = -4.36
• Cc1cc(C2CCCN2Cc2nc3ccccc3o2)on1 (configuration not stated) = 1.19
• CC(C)(CNc1cn[nH]c(=O)c1Cl)c1ccc2c(c1)OCO2 = -13.4
• Cc1cc(-c2cnc(N3CCSCC3)nc2-c2ccc(C)s2)on1 = -7.01
• CS(=O)(=O)NCc1cnc2n1CCN(Cc1ccco1)CC2 = -6.2
• O=C(NCCC1CN(Cc2c[nH]cn2)CCO1)c1ccccc1O (configuration not stated) = 23
• Cc1cc(Br)oc1C(=O)N1CCN(CC(N)=O)CC1 = -1.55
• CCOC(=O)N1CCN(c2nc(C)ncc2CC)CC1 = 1.02
• CCCc1cc(NCCCC2CCOC2)n2nccc2n1 (configuration not stated) = -2.1
• CC(=O)N1CCC(NC2(Cc3cc(CN(C)C)on3)COC2)CC1 = 11.9
• Cc1cccc(COC[C@@H]2CC[C@H]3[C@H](CCN3Cc3ccco3)O2)n1 = -6.18
• Cc1cnn(CC2CN(Cc3nc(C)c4ccccc4n3)CCO2)c1 (configuration not stated) = -7.25
• CCCn1cc(-c2cc(-c3ccoc3)c(C#N)c(N)n2)c(C)n1 = 5.86
• CC(C)c1ncncc1C(=O)NCCN1CCCCCC1 = -0.207
• O=C(NCCOCC(F)(F)F)c1ccc(-c2ccco2)[nH]c1=O = -9.67
• Cc1ncsc1C(=O)N1CCC(O)(Cn2c(C)cc3ccncc32)CC1 = -0.305
• Cc1cc(C)n(-c2ccc(CNCc3ccc(OC(C)C)cc3)cn2)n1 = -0.102
• CC(C(=O)N1CCOCC1)S(=O)(=O)Cc1noc(C(C)(C)C)n1 (configuration not stated) = 7.07
• CN1CCOC(CNCc2coc(-c3cccc(Cl)c3)n2)C1 (configuration not stated) = -0.236
• Cn1cc(NC(=O)Cc2cccs2)c(=O)n(C)c1=O = -9.77
• Cc1ncncc1C(=O)N1CCC(O)(CN(C)Cc2ccc(F)cc2)C1 (configuration not stated) = -5.31
• COc1ccccc1C(=O)N1Cc2cc(C)ccc2OCC1CN(C)C (configuration not stated) = -8.39
